Values from patent US20260297129A1

Entries and their solubility at 2 h values follow.
assay: Solubility of peptide compounds in buffer formulations (Table 5); assay type: physicochemical; settings: aqueous buffer; 50 mM phosphate buffer pH 7.4, 2 h agitation, target 1 mg/ml; read-out: Solubility, Buffer pH 7.4
Bridge positions count the residues as written; N and C are the ends. Square brackets hold non-standard residues; d marks the D form. Peptide text beside a SMILES is read from it. * marks the point of attachment. Trp(7-Me) = Cc1cccc2c(C[C@H](N)C(=O)O)c[nH]c12; 2Nal = N[C@@H](Cc1ccc2ccccc2c1)C(=O)O; C12 diacid = O=C(O)CCCCCCCCCCC(=O)*; 3Pal = N[C@@H](Cc1cccnc1)C(=O)O; Thp = NC1(C(=O)O)CCOCC1; Me2NCH2CH2 = CN(C)CC*; Aib = CC(C)(N)C(=O)O; Aoc = NCCCCCCCC(=O)O; Sar = CNCC(=O)O

Ask: Data request, read-out solubility at 2 h, for Cc1cccc2c(C[C@@H]3NC(=O)CCCCCCCCCCC(=O)NCCCC[C@@H](C(=O)N[C@@H](CC(N)=O)C(=O)N[C@@H](Cc4cccnc4)C(=O)N(C)CC(N)=O)NC(=O)C(C)(C)NC(=O)[C@H](Cc4ccc5ccccc5c4)NC(=O)[C@H](Cc4ccc(OCCN(C)C)cc4)NC(=O)C4(CCOCC4)NC(=O)[C@H](CCC(N)=O)NC3=O)c[nH]c12 [compound 10] ([Trp(7-Me)]Q[Thp]Y(Me2NCH2CH2)[2Nal][Aib]KN[3Pal][Sar]-NH2; linker N-7 via C12 diacid)
Reply: 70 µg/mL

Turning now to a further compound:
Ask: Name the reported solubility at 2 h value associated with the compound Cc1cccc2c(C[C@@H]3NC(=O)CCCCCCCNC(=O)CC[C@@H](C(=O)N[C@@H](CC(N)=O)C(=O)N[C@@H](Cc4cccnc4)C(=O)N(C)CC(N)=O)NC(=O)C(C)(C)NC(=O)[C@H](Cc4ccc5ccccc5c4)NC(=O)[C@H](Cc4ccc(OCCN(C)C)cc4)NC(=O)C4(CCOCC4)NC(=O)[C@H](CCC(N)=O)NC3=O)c[nH]c12 [compound 6] ([Aoc][Trp(7-Me)]Q[Thp]Y(Me2NCH2CH2)[2Nal][Aib]EN[3Pal][Sar]-NH2; lactam N-8)
Reply: ≥ 1090 µg/mL
